experiment: Immunostimulatory activity in human Gamma delta T cells expressing Vgamma2Vdelta2T assessed as proliferation after 16 to 24 hrs by [3H]thymidine incorporation assay; format: functional, cell-based; details: T-cell
pEC50: −log10 of the molar value.
// reported pEC50 for each item listed
Recorded metric: pEC50

• C/C(=C\COP(=O)(O)OP(=O)(O)O)COCc1ccc(C(=O)c2ccccc2)cc1 = 8.74
• CC(=O)OC[C@H]1O[C@@H](OC/C(C)=C/COP(=O)(O)OP(=O)(O)O)[C@H](OC(C)=O)[C@@H](OC(C)=O)[C@@H]1OC(C)=O = 6.44
• C/C(=C\COP(=O)(O)OP(=O)(O)O)CO[C@@H]1O[C@H](CO)[C@@H](O)[C@H](O)[C@H]1O = 7.11
• C/C(=C\COP(=O)(O)OP(=O)(O)O)COC(=O)c1cccc(C(=O)c2ccccc2)c1 = 10.10
• C/C(=C\COP(=O)(O)OP(=O)(O)O)COCc1cccc(C(=O)c2ccccc2)c1 = 8.74
• C/C(=C\COP(=O)(O)OP(=O)(O)O)COC(=O)c1ccc(C(=O)c2ccccc2)cc1 = 10.10
